// values below are reported IC50
Target: human recombinant HDAC6 (Homo sapiens, UniProt Q9UBN7)
Construct: purchased Calbiochem Inc. 382180
Sequence (Q9UBN7 1-1215): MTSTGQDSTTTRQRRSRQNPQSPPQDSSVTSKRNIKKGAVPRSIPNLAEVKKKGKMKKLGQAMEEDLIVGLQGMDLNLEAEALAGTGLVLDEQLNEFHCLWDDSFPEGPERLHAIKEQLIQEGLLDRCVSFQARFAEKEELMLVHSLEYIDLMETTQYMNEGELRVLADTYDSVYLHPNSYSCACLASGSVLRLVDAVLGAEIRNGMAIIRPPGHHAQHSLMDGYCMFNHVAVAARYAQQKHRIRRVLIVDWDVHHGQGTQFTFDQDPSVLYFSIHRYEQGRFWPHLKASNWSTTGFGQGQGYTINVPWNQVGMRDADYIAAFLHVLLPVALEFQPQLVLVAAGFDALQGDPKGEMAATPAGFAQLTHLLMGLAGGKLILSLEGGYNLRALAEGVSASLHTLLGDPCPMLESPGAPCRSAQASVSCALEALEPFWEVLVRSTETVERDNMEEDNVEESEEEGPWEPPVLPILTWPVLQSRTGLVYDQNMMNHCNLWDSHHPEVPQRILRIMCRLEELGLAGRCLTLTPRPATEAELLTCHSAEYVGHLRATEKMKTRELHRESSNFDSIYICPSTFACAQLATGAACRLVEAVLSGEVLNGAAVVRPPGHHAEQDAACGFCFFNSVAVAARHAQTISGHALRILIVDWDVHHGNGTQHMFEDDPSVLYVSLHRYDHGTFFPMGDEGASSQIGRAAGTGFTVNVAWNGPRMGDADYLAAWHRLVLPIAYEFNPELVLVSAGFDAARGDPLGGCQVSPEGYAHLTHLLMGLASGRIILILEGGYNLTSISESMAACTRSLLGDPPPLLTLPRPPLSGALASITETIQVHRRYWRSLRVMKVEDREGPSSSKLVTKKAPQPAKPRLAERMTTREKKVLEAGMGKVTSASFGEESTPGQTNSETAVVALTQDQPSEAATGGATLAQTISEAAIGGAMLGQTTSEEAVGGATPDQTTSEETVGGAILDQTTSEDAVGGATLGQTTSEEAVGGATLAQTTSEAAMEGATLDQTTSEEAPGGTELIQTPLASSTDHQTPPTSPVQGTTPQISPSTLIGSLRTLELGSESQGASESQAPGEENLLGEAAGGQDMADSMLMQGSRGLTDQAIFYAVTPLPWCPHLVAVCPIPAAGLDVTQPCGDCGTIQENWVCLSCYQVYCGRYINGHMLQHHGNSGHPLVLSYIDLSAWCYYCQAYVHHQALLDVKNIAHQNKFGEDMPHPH
Assay: HDAC6 enzyme activity inhibition (HDAC Fluorimetric Drug Discovery Kit)
Format: biochemical
Conditions: human recombinant HDAC6, same protocol as HDAC1
Entry rule: numbers only, all in nM.

Some molecules with recorded IC50:
Fc1cc(-c2nnc(C(F)F)o2)cnc1Cn1cc(-c2ccccc2CN2CCCC2)nn1 380
Fc1cc(-c2nnc(C(F)F)o2)cnc1Cn1cc(-c2ccc(CN3CCC3)cc2Cl)nn1 47.1
Fc1cc(-c2nnc(C(F)F)o2)ccc1Cn1cc(-c2ccc(CN3CCCC3)cn2)nn1 22
Fc1cc(-c2nnc(C(F)F)o2)ccc1Cn1cc(-c2cccc(N3CCN(C4CCC4)CC3)c2F)nn1 39.8
Fc1cc(-c2nnc(C(F)F)o2)ccc1Cn1cc(-c2ccc(CN3CCC3)s2)nn1 40.4
CN(C)Cc1ccc(-c2cn(Cc3ncc(-c4nnc(C(F)F)o4)cc3F)nn2)cc1F 65.8
COc1cccc(-c2cn(Cc3ccc(-c4nnc(C(F)F)o4)cc3F)nn2)n1 80.3
CC(C)N1CCN(c2cccc(-c3cn(Cc4ccc(-c5nnc(C(F)F)o5)cn4)nn3)c2F)CC1 18.3
CC(C)N1CCN(c2cccc(-c3cn(Cc4ccc(-c5nnc(C(F)F)o5)cc4F)nn3)n2)CC1 22.6
Fc1cc(-c2nnc(C(F)F)o2)cnc1Cn1cc(-c2cccs2)nn1 56.5

Fill in: IC50 of Fc1cc(-c2nnc(C(F)F)o2)ccc1Cn1cc(-c2ccc(CN3CC[C@@H](F)C3)cn2)nn1 is ___ 64.5
